Attribution: patent US20240252641A1

This section presents binders with their documented Kd values.
Molecular target: T1, CD70 (UniProt P32970 39-193, limits assumed)
T1 construct: also called CD70 (100 nM)
T1 sequence (looked up): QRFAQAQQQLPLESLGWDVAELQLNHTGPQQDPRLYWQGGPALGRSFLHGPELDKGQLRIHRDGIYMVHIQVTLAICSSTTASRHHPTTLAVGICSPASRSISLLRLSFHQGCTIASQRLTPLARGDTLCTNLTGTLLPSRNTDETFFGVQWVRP
Test: Octet (BLI); hybridoma mAb, CD70 at 100 nM

binder	Kd [pM]
15F8 (15F8D8) (antibody, V domains shown, IgG in hybridoma supernatant; also called 15F8D9) VH: EVQLVESGGGVVRPGGSLRLSCAASGFTFDDYGVSWVRQAPGRGLEWVSGINWNGGSTAYADSVKGRFTISRDSAKNSLYLQMDSLRAEDTALYYCAREEGSYYVWYFDIWGRGTLVTVSS VL: DIQMTQSPSSLSASVGDRVTITCRPSQSISNYLNWYQQKPGKAPKVLIYASFILQSGVPSRFGGSGSGTDFTLTISSLQPEDFATYYCQQSYSNPFTFGPGTKVDIK	4.81
4G7 (4G7E8) (antibody, V domains shown, IgG in hybridoma supernatant; The variable domains exist only inside scFv entries 1213/1214) VH: QVQLVESGGGVVQPGRSLRLSCAASGFTFSSYGLHWVRQAPGKGLDWVAVIWYDGSNKYYVDSVKGRFTISRDNSMNTLFLQMNSLRAEDTAVYYCARDEAAAAGAFDIWGQGTMVTVSS VL: DIQLTQSPSFLSASVGDRVTITCRASQGISSYLAWYQQKPGKAPKLLIYAASTLQSGVPSRFSGSGSGTEFTLTISSLQPEDFATYYCQQLNYYSITFGQGTRLEIK	1280
9A1 (9A1H6) (antibody, V domains shown, IgG in hybridoma supernatant) VH: QVQLVQSGAEVKKPGASVKVSCKASGYSFTGYYMHWVRQAPGQGLEWMGWINPKSGGTSYAQQFQGRVTMTRDTSMSTVYMELTRLRADDTAVYYCARLYYSGWYGDYWGQGTLVTVSS VL: DIQMTQSPSSLSASVGDRVTITCQASQDINNYLNWYQQKPGKVPNLLIYDASNLETGVPSRFSGSGSGTDFTFTISSLQPEDIATYYCQQYNNPPITFGQGTRLEIK	6.03
9A11 (9A11E8) (antibody, V domains shown, IgG in hybridoma supernatant) VH: QVQLVESGGGVVQPGRSLRLSCAASGFTFSNYGMYWVRQAPGKGLEWVAVIWYDGSKKYYGDSVKGRFTISRDNSKNTLYLQMNSLRAEDTAVYYCARDEDTVMASFDYWGQGTLVTVSS VL: DIQLTQSPSFLSASVGDRVTITCRASQDISIYLAWYQQKPGKAPQLLIYAASTLQSGVPSRFSGSGSGTEFTLTISSLQPEDFATYSCQQLNSYPITFGGGTKVEIK	2.46
